# Tested on: Escherichia coli TOP10;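 also: peptides expressed intracellularly from a pBAD plasmid library in pooled LB shake-flask culture, induced with 0.3% L-arabinose, DNA abundance read by NGS, three biological replicates, DESeq2 with apeglm shrinkage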
# Assay Details: shrunken log2 fold change of peptide-encoding DNA abundance (4.5 h post-induction vs induction); higher = less antimicrobial activity (less host growth inhibition)
# Run Conditions: time post-induction: 4.5 h; library: site-saturation at positions 5, 18, 19, 20
Experimental Readout: shrunken log2 fold change

[
  {
    "Item Sequence": "RRIRERPPRLPRPRPRPTMCPRP",
    "Reading": 0.292
  },
  {
    "Item Sequence": "RRIRARPPRLPRPRPRPNECPRP",
    "Reading": -0.409
  },
  {
    "Item Sequence": "RRIRERPPRLPRPRPRPCNPPRP",
    "Reading": -0.442
  },
  {
    "Item Sequence": "RRIRSRPPRLPRPRPRPTAIPRP",
    "Reading": -0.0172
  },
  {
    "Item Sequence": "RRIRYRPPRLPRPRPRPYLCPRP",
    "Reading": -1.35
  },
  {
    "Item Sequence": "RRIRIRPPRLPRPRPRPAWLPRP",
    "Reading": 0.272
  },
  {
    "Item Sequence": "RRIRNRPPRLPRPRPRPSTMPRP",
    "Reading": -1.15
  },
  {
    "Item Sequence": "RRIRARPPRLPRPRPRPNCGPRP",
    "Reading": 0.281
  },
  {
    "Item Sequence": "RRIRFRPPRLPRPRPRPDMEPRP",
    "Reading": -0.16
  },
  {
    "Item Sequence": "RRIRHRPPRLPRPRPRPWLGPRP",
    "Reading": -0.0973
  },
  {
    "Item Sequence": "RRIRIRPPRLPRPRPRPPDYPRP",
    "Reading": -0.0646
  },
  {
    "Item Sequence": "RRIRWRPPRLPRPRPRPRDVPRP",
    "Reading": 0.333
  },
  {
    "Item Sequence": "RRIRLRPPRLPRPRPRPPLGPRP",
    "Reading": 0.409
  },
  {
    "Item Sequence": "RRIRCRPPRLPRPRPRPPHSPRP",
    "Reading": 0.395
  },
  {
    "Item Sequence": "RRIRMRPPRLPRPRPRPFMWPRP",
    "Reading": -0.128
  },
  {
    "Item Sequence": "RRIRTRPPRLPRPRPRPLPHPRP",
    "Reading": -0.00316
  },
  {
    "Item Sequence": "RRIRGRPPRLPRPRPRPKVTPRP",
    "Reading": 0.29
  },
  {
    "Item Sequence": "RRIRIRPPRLPRPRPRPRMEPRP",
    "Reading": -0.00396
  },
  {
    "Item Sequence": "RRIRSRPPRLPRPRPRPYHMPRP",
    "Reading": -1.26
  },
  {
    "Item Sequence": "RRIRMRPPRLPRPRPRPHRRPRP",
    "Reading": 0.0631
  },
  {
    "Item Sequence": "RRIRLRPPRLPRPRPRPVNVPRP",
    "Reading": -0.00443
  },
  {
    "Item Sequence": "RRIRFRPPRLPRPRPRPFEKPRP",
    "Reading": -0.0749
  },
  {
    "Item Sequence": "RRIRDRPPRLPRPRPRPESGPRP",
    "Reading": 0.778
  },
  {
    "Item Sequence": "RRIRTRPPRLPRPRPRPMVDPRP",
    "Reading": -0.00822
  },
  {
    "Item Sequence": "RRIRVRPPRLPRPRPRPGPWPRP",
    "Reading": 0.273
  },
  {
    "Item Sequence": "RRIRLRPPRLPRPRPRPETGPRP",
    "Reading": -0.0316
  },
  {
    "Item Sequence": "RRIRSRPPRLPRPRPRPWLKPRP",
    "Reading": 0.0524
  },
  {
    "Item Sequence": "RRIRCRPPRLPRPRPRPGVWPRP",
    "Reading": 0.537
  },
  {
    "Item Sequence": "RRIRKRPPRLPRPRPRPLQYPRP",
    "Reading": -0.0563
  },
  {
    "Item Sequence": "RRIRWRPPRLPRPRPRPHLDPRP",
    "Reading": -0.0108
  },
  {
    "Item Sequence": "RRIRFRPPRLPRPRPRPRLSPRP",
    "Reading": -0.194
  },
  {
    "Item Sequence": "RRIRIRPPRLPRPRPRPDSKPRP",
    "Reading": -0.325
  },
  {
    "Item Sequence": "RRIRTRPPRLPRPRPRPCPNPRP",
    "Reading": -0.000921
  },
  {
    "Item Sequence": "RRIRRRPPRLPRPRPRPQSVPRP",
    "Reading": -0.0146
  },
  {
    "Item Sequence": "RRIRARPPRLPRPRPRPMNGPRP",
    "Reading": -0.0023
  },
  {
    "Item Sequence": "RRIRRRPPRLPRPRPRPNEFPRP",
    "Reading": -0.0247
  },
  {
    "Item Sequence": "RRIRARPPRLPRPRPRPEDKPRP",
    "Reading": 1.89
  },
  {
    "Item Sequence": "RRIRDRPPRLPRPRPRPAWHPRP",
    "Reading": 0.2
  },
  {
    "Item Sequence": "RRIRHRPPRLPRPRPRPANIPRP",
    "Reading": -0.291
  },
  {
    "Item Sequence": "RRIRSRPPRLPRPRPRPQQPPRP",
    "Reading": -0.273
  },
  {
    "Item Sequence": "RRIRMRPPRLPRPRPRPYDDPRP",
    "Reading": -0.00329
  },
  {
    "Item Sequence": "RRIRERPPRLPRPRPRPYWSPRP",
    "Reading": -0.568
  },
  {
    "Item Sequence": "RRIRIRPPRLPRPRPRPLNQPRP",
    "Reading": -0.195
  },
  {
    "Item Sequence": "RRIRKRPPRLPRPRPRPPIIPRP",
    "Reading": -0.146
  },
  {
    "Item Sequence": "RRIRRRPPRLPRPRPRPAEDPRP",
    "Reading": 0.987
  },
  {
    "Item Sequence": "RRIRARPPRLPRPRPRPMVFPRP",
    "Reading": 0.508
  },
  {
    "Item Sequence": "RRIRYRPPRLPRPRPRPSIKPRP",
    "Reading": -0.952
  },
  {
    "Item Sequence": "RRIRGRPPRLPRPRPRPQWCPRP",
    "Reading": 0.216
  },
  {
    "Item Sequence": "RRIRDRPPRLPRPRPRPTEFPRP",
    "Reading": -0.0306
  },
  {
    "Item Sequence": "RRIRRRPPRLPRPRPRPYNNPRP",
    "Reading": -0.76
  },
  {
    "Item Sequence": "RRIRYRPPRLPRPRPRPPTPPRP",
    "Reading": 0.104
  },
  {
    "Item Sequence": "RRIRYRPPRLPRPRPRPDWYPRP",
    "Reading": -0.968
  },
  {
    "Item Sequence": "RRIRDRPPRLPRPRPRPCYAPRP",
    "Reading": 0.326
  },
  {
    "Item Sequence": "RRIRYRPPRLPRPRPRPELSPRP",
    "Reading": 0.0544
  },
  {
    "Item Sequence": "RRIRTRPPRLPRPRPRPPEIPRP",
    "Reading": 0.0182
  },
  {
    "Item Sequence": "RRIRGRPPRLPRPRPRPNSCPRP",
    "Reading": 0.0941
  },
  {
    "Item Sequence": "RRIRCRPPRLPRPRPRPMIHPRP",
    "Reading": -0.466
  },
  {
    "Item Sequence": "RRIRCRPPRLPRPRPRPRCAPRP",
    "Reading": 0.346
  },
  {
    "Item Sequence": "RRIRHRPPRLPRPRPRPRLYPRP",
    "Reading": 0.114
  },
  {
    "Item Sequence": "RRIRFRPPRLPRPRPRPCVYPRP",
    "Reading": -0.0699
  }
]
